Hi there, I'd appreciate the recorded MIC for every entry that follows.
tested on: P. aeruginosa CDC-0090; assay: microbe, parasite or virus in culture; format: cell-based; settings: Pseudomonas aeruginosa, CDC0090, read-out: Minimum inhibitory concentration, P. aeruginosa CDC-0090

Name the recorded MIC of the item O=C(O)c1c(F)ccc2c1OB(O)[C@@H](NC(=O)C(NC(=O)N1CCN(C3CCN(C(=O)Nc4ccc(Cl)c(O)c4F)CC3)C(=O)C1=O)c1cc(F)c(O)c(O)c1Cl)C2 (some centres unmarked) [Example 489] in your answer. 2 to 4 µg/mL

Name the recorded MIC of the item O=C(O)c1c(F)ccc2c1OB(O)[C@@H](NC(=O)[C@H](NC(=O)N1CCN(C3CCN(C(=O)c4ccc(F)c(O)c4)CC3)C1=O)c1cc(F)c(O)c(O)c1Cl)C2 (single isomer, unassigned) [Example 435] in your answer. < 1 µg/mL

Name the recorded MIC of the item O=C(NCCCN1CCN(C(=O)NC(C(=O)N[C@H]2Cc3ccc(F)c(C(=O)O)c3OB2O)c2cc(F)c(O)c(O)c2Cl)C(=O)C1=O)c1cc(F)ncc1F (mixture of isomers) [Example 405] in your answer. 2 to 4 µg/mL

Name the recorded MIC of the item O=C(NCCN1CCN(C(=O)NC(C(=O)N[C@H]2Cc3ccc(F)c(C(=O)O)c3OB2O)c2cc(F)c(O)c(O)c2Cl)C1=O)Nc1ccncc1 (some centres unmarked) [Example 250] in your answer. 2 to 4 µg/mL

Name the recorded MIC of the item CS(=O)(=O)N1CCN(C(=O)N[C@@H](C(=O)N[C@H]2Cc3cccc(C(=O)O)c3OB2O)c2ccc(P(=O)(O)O)cc2)C1=O (single isomer, unassigned) [Example 6] in your answer. > 128 µg/mL
